Outcome measure: melting point

Lab note: NNC(=O)c1ccc(Br)cc1Cl gave melting point of 173 to 175 °C

Recorded melting point (compound N#Cc1c(N)oc(-c2ccco2)c1-c1ccco1 ): 183 to 185 °C

Query CC(CP(c1ccccc1)c1ccccc1)P(c1ccccc1)c1ccccc1 (stereo not drawn) yields melting point of 68 to 73 °C

For this compound ( O=C(C1CCNCC1)N1CCCC1 ), measured melting point is 45 to 47 °C

What the record says about O=C(O)c1ccccc1-n1cccn1 : melting point is 190 to 193 °C

The value of melting point measured for the compound CCOC(=O)C=P(c1ccccc1)(c1ccccc1)c1ccccc1 turned out to be 124 to 129 °C

Form: compound = O=C(O)c1csc2ccc(Br)cc12 ; melting point = 284 to 287 °C

Summary for this compound, C/C(=N\c1cc(C)ccc1O)c1c(O)c2ccccc2n(-c2ccccc2)c1=O : melting point is 251 to 252 °C

So, N#Cc1ccc([N+](=O)[O-])cc1C#N ? Its melting point was 140 to 144 °C

Data point: CC(C)(C)c1cc(CC(=O)O)cc(C(C)(C)C)c1O ; melting point = 157 to 158 °C

The compound listed as CC(=NO)c1ccco1 has a reported melting point of 104 to 105 °C

melting point reported for this compound CCCOC1CCC2C3CCC4=CC(O)CCC4(C)C3CCC12C (stereo not drawn) : 123 to 127 °C

Record Nc1cccnc1Oc1ccc(F)cc1F . Reported melting point: 96 to 97 °C

Record summary for OC(C(F)(F)F)(C(F)(F)F)C(O)(C(F)(F)F)C(F)(F)F : reported melting point = 18 to 20 °C

Field melting point (entry O=Cc1ccc2nonc2c1 ) reads 58 °C

Per the record, CCN(CC)Cc1c(N)c2ccccc2oc1=O has melting point of 133 °C

melting point for O=C(O)c1scc2c1CCCC2 is 203 to 205 °C

melting point reading for Nc1cc(F)c(Cl)cc1N : 110 to 112 °C

// field: melting point; key: CC(=O)OC1CCC2(C)C(CCC3C4=C(CCC32)C(C)(C#Cc2ccccc2)CC4)C1 (stereo not drawn) ; value = 135 to 136 °C

melting point for Cc1cc(Oc2ccc(C(N)=NO)cc2[N+](=O)[O-])cc(C)c1Cl is 183 to 185 °C

Reported melting point for O=C(O)c1ccc2ccccc2c1O was 199 to 205 °C

The recorded melting point for entry Clc1ccccc1-c1ccccc1Cl equals 61.5 °C

Consider CN(C)S(=O)(=O)Cl . Its measured melting point is -13 °C
